Test system: HOP-92
procedure-text: NCI tumour cell line growth inhibition, 48 h
Calls of active or inactive are those of the source. Cut-off read from the data, not from the text of the source: active = GI50 up to about 1.1 µM and inactive = higher.
measurement-type: GI50

Recorded result, Cc1ccc(-c2c3nc(c(-c4ccc(C)cc4)c4ccc([nH]4)c(-c4ccc(OCC5COC(C)(C)O5)cc4)c4nc(c(-c5ccc(C)cc5)c5ccc2[nH]5)C=C4)C=C3)cc1 (stereo not drawn) , GI50: > 100 µM (inactive)

The reported value for COC(=O)c1nn(C(=N)c2ccc(Cl)cc2)c2c1CCCCC2 in terms of GI50 is > 100 µM (inactive)

Consider CC(C)[Si](OC1=CCC[C@H]2NC(=O)[C@@H](Cc3ccccc3)[C@@]12C)(C(C)C)C(C)C . Its measured GI50 is 2.32 µM (inactive)

For record CCc1nc(N)nc(N)c1-c1ccc(Cl)c([N+]#N)c1 the listed GI50 is > 100 µM (inactive)

Entry Cn1c2c(c3ccccc31)CCN=C2C1CCCOC1=O (stereo not drawn) — recorded GI50 = 45.4 µM (inactive)

// field: GI50; key: O=C1C([P+](c2ccccc2)(c2ccccc2)c2ccccc2)=C([O-])C(=Cc2ccc(Cl)c(Cl)c2)C([O-])=C1[P+](c1ccccc1)(c1ccccc1)c1ccccc1 ; value = 2.34 µM (inactive)

The recorded GI50 for Cc1cn(C2C=CC(COP(=O)(OCc3ccc([N+](=O)[O-])o3)N(C)CCCCCl)O2)c(=O)[nH]c1=O (stereo not drawn) is 1.95 µM (inactive)

Entry CC(C)(C)OC(=O)n1cc(C2CNC(=O)C23CCC(=O)N3Cc2ccccc2)c2ccccc21 (stereo not drawn) , GI50 reported as 10.9 µM (inactive)

----------
System: 786-0
procedure-text: NCI tumour cell line growth inhibition, 48 h
Calls of active or inactive are those of the source. Rule as the data show it: active = GI50 up to about 1.1 µM and inactive = higher.
measurement-type: GI50

compound | GI50
C/C(CCn1[nH]c(=O)ccc1=O)=N\NC(=O)C(=O)NN | > 100 µM (inactive)

Next:
Entry CCOC(=O)CN(c1ccccc1)c1nc(=[N+](C)C)ss1 , GI50 reported as 37.9 µM (inactive)

----------
# GI50 listing for each entry below
System: CCRF-CEM
procedure-text: NCI tumour cell line growth inhibition, 48 h
The source made the active and inactive calls. No stated cut-off is given here; in the data, active = GI50 up to about 1.1 µM and inactive = higher.

molecule | GI50
CC[C@@]1(OP(=O)(O)O)C(=O)OCc2c1cc1n(c2=O)Cc2cc3ccccc3nc2-1 | 0.00927 µM (active)

Input Cc1ccc(-c2nc(N/N=C/C=C/c3ccccc3)c3ccccc3n2)cc1 . Output GI50: > 100 µM (inactive)

Entry OCCCCCCCCCCCOc1ccc(C2OCC3(CC=CCC3)CO2)cc1 (stereo not given) ; GI50 = 11 µM (inactive)

The molecule listed as COc1cc(/C=C2\Cc3cc(OC)c(OC)cc3C2=O)cc(OC)c1 has a reported GI50 of > 100 µM (inactive)

What the record says about CC(NC(=O)C(NC(=O)C(NC(=O)C(F)(F)F)C(C)C)C(C)C)C(=O)Oc1c(Cl)c(Cl)c(Cl)c(Cl)c1Cl (stereo not given) : GI50 is > 100 µM (inactive)

So, O=C(n1c2ccccc2c2nnc(S)nc21)C(F)(F)F ? Its GI50 was > 100 µM (inactive)

Form: molecule = CC1=C(C(=O)Nc2ccccc2)C(c2ccc(C(C)C)cc2)C(C(=O)Nc2ccccc2)=C(C)N1 ; GI50 = 13.3 µM (inactive)

Reported GI50 for COc1ccc(NS(=O)(=O)c2ccc(NC(NC(=O)CC(C)C)(C(F)(F)F)C(F)(F)F)cc2)nn1 was > 100 µM (inactive)

So for COC(=O)C1=C(C(=O)OC)C2(c3ccccc3)OC1(c1ccccc1)c1cc3ccccc3cc12 , the logged GI50 turned out to be 0.451 µM (active)

// GI50 lookup, molecule = COc1cc(-c2oc3c(OC)c(O)c(OC)c(O)c3c(=O)c2OC)cc(O)c1OC , result: 28.9 µM (inactive)

Measured GI50, Clc1ccc(/N=C2\c3ccccc3CN2c2ccc(Cl)cc2)cc1 : < 0.01 µM (active)

GI50 reading for COc1ccc2[nH]c3c(C)c4cnccc4c(C)c3c2c1 : 2.07 µM (inactive)

Lab note: measured GI50 of CC(=O)Oc1cc2c(n(C)c1=O)-c1ccccc1C2 was 34.2 µM (inactive)

// sample C=C(C)C(CC=C(C)C)CC12CC(CC=C(C)C)C(C)(C)C(CC=C(C)C)(C(=O)C(Cc3ccc(O)c(O)c3)=C1O)C2=O (stereo not given) , its GI50 was 59.6 µM (inactive)

GI50 recorded for this molecule, O=Nc1c(-c2c(O)[nH]c3ccc(I)cc23)[nH]c2ccccc12 , is 2.08 µM (inactive)

# GI50 of O=C(CC(=O)N1N=C(N(c2ccccc2)c2ccccc2)CC1c1ccccc1)Nc1ccccc1 (stereo not given) = > 100 µM (inactive)

// recorded GI50 for COc1ccc(CC(O)CN2CCOCC2)cc1 (stereo not given) : > 100 µM (inactive)

So, Cc1n[nH]c(=O)n1-c1cccnc1 ? Its GI50 was > 100 µM (inactive)

The reported GI50 of the molecule CN(C)C(=S)/N=c1\ss/c(=N\S(=O)(=O)c2ccccc2)n1N(C)C was 37.9 µM (inactive)

get_value(item= CCC1(OC(=O)CN2CCN(CCO)CC2)C(=O)OCc2c1cc1n(c2=O)Cc2cc3ccccc3nc2-1 (stereo not given) , readout=GI50) returns 0.0324 µM (active)
